- methodNotes: soluble fraction after stress (log2 fold change); higher = more stays soluble; pooled small domains, quantitative proteomics
- runConditions: stress: pH 4
measuredAttribute: soluble fraction (log2)

sequenceString	measValue
HMAIDWVQIKAEYISGTMSASKLAEKHGVSVYAIRKRSGKERWQELRRQNQSETANKIAEKI	-0.0638
HMKSARQIAILEIIAEKSIETQEDLADALRLRGFQVTQATVSRDIKELRLVKALAPDGTYRYATAEK	0.264

Give one value of soluble fraction (log2) per listed sequence.
1. HMKFNEKQNEVRIAIMNFIIDNKRPFHMKQDGYDALEGITLSGRHEFQDILDVLHSRDGFSADEEGNINF
2. HMHKLTIEEALNYKTPANAGGPYSGKPFRDIYDQRGKAAVISFAKYYLSKATPEDPMVEVYRTLLDGAMEL

1: -1.69; 2: 0.102

* * *

- methodNotes: soluble fraction after stress (log2 fold change); higher = more stays soluble; pooled small domains, quantitative proteomics
- runConditions: stress: pH 4
For each record, write down the corresponding soluble fraction (log2).
One number for each entry.

Below: 4 sequences and their reported soluble fraction (log2).
sequenceString	soluble fraction (log2)
HMHDHKTRLQELAAQRFGSAPSYLLTADGPAHDRRFHASVEVGGRSFGPGTGKSKKRAEQVAAHIAWDALS	0.415
HMKNVADEVFEKMLNMIIEGDWKKGEMIPSENELREAFSVSRSTVRQAVQRLSALGIVRSRQGKGTYVEQV	0.0309
HMKHSEAIELGKRMLSQALQDVSLVLKKIPEERLQAVAAELNLKTPDELFEKIGLGERLAALVARRLLP	0.0472
HMSMSKISNLLEIMMIIQYKGLTTASELAQSLGVDKKTVYRYINSLSKANIPIYTKKGRYGGFYIDKNF	0.138

For each entry beneath this line, provide reported soluble fraction (log2).
1. HMEKALEVKYQKMVELLGDQSTFYVDEVKKIFPEMKKSSLYWNMSKLVEGGYLRRIRNGVYAFNE
2. HMLEAMDSDEAAKVIEQIVNERADFVRSKGMGAIGPLMGPVMGALRGKVDGKQANELLTAAIKKLL
3. HMEPTIGTATVTSGSRLNMRSAKSTSASVVTRIPSGATVGVISYASDWSKVTYNGYTGYVSSPYISMNG
4. HMTAMQYVTIKDIADALGISKSSVSRALAGDVHNVSAQTIERVRAKALEMGYLRNNAAVNLR
5. HMDLDIQNYNLDEILELFKVSYDFDETELKKAHKMYLMTHPDKSNLNPNIFLFFVQAYDILRKLYEFR
6. HMYGQEVKVLGLFGDRAFIKVDEKSAVIRIGQSHQNVQLKSISNQKAILLVDNKDIALGLGDSYQSA
7. HMTAKQDLDSIYRHLVATRKSIAENPKMVSSIDDPQALIKMLDYAIQYFYTDKRDEALAVLEKNEEQLNFR

-0.124
0.177
-0.108
0.22
-1.66
-0.397
-0.206

* * *

Please respond with reported soluble fraction (log2) for every item in the list.
- methodNotes: soluble fraction after stress (log2 fold change); higher = more stays soluble; pooled small domains, quantitative proteomics
- runConditions: stress: pH 4
Numbers only.

Please review the following examples before continuing.
sequenceString	measuredAttribute	measValue
HMAKRPRFEDVIKEINTEIQKRKGKWNLTILSWMDFDDVAQVIRIHIYRKWHLYDPSKPLGPWLNR	soluble fraction (log2)	0.322
HMRAAEPTTDAQRDRRRRIVLTAMTMLQERGYDEIQMRDVAQQAGVALGTLYRYFPSKEQLFAHVLVE	soluble fraction (log2)	-0.68
HMSDPVKQVAMRILDLREISDYTVDKMAEVLNVPVEEYRKYESGEVDMPISFLVKIGEVFHVDMTELLTG	soluble fraction (log2)	-0.679
HMSTVIENVFKNFEVYEIKKGDTFYNIEKRFGVNRQELLVLNPELKEGLKLGMVLKIKEIIP	soluble fraction (log2)	0.192
HMSPPVIQQGQDVRLIYKGTGFAVSNEGKALNTAADGQVARARTGGGQTVSGIARPGGIIEIT	soluble fraction (log2)	0.103

# return soluble fraction (log2) for each item in the list
1. HMVSSAEQQARDKESGMILVQEAGGPDKARALVEKMRQDIRNPALDGTRRQMLRGHVARIELALAELETG
2. HMRDAKSQLQEALQKSGRLPEYELVSVEGPPHAPVFTYRVRIDGAVVGEGQGASKQAAQQAAAQSALKSG
3. HMYTGSEGMAGLEGRAVTEVGPEAGTVLVKGEYWQARSDEPIATDRKIRVIRLEGLRLRVAEIHPEG

1. -0.0115
2. 0.22
3. 0.169
